molecular target: human CB1 receptors (Homo sapiens (Human)); experiment: cAMP assay, CHO cells expressing human CB1 receptors; type: cell-based; conditions: CHO cells expressing human CB1, cAMP; read-out: human CB1 EC50
Sequence (P21554 whole entry): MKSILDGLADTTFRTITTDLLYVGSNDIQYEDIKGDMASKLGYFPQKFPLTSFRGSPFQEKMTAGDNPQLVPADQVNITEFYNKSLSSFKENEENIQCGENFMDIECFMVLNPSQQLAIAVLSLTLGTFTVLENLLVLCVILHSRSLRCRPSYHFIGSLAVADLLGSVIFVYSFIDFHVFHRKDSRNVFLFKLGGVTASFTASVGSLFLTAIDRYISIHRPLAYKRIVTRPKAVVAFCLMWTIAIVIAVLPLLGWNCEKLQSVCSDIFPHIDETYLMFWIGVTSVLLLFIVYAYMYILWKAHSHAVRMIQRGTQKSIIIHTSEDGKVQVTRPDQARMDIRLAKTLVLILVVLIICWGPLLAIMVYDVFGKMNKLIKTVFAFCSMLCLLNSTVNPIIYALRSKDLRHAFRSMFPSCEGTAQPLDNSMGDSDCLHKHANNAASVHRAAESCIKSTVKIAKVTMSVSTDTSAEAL
Listing of recorded EC50 by entry.

Would you please look over these solved cases?
{"columns": ["compound", "EC50"],
 "data": [
  ["Cc1nc(C(C)(C)NC(=O)c2ccc(N3CC(F)(F)C3)c(OCC3CC3)n2)no1 [Example 102]", "> 10 µM"],
  ["Cc1csc(C(C)(C)NC(=O)c2ccc(C3CC3)c(OCC3CC3)n2)n1 [Example 294]", "> 10 µM"],
  ["CC(C)(NC(=O)c1cccc(-c2cccc(Cl)c2)n1)c1nnco1 [Example 17]", "> 10 µM"],
  ["CC(C)(NC(=O)c1ccc(C2CC2)c(OCC(F)(F)F)n1)c1nccs1 [Example 305]", "> 10 µM"]
]}

Next:
Asked: Name the reported EC50 value associated with the compound CCOC(=O)C(CC)(CC)NC(=O)c1ccc(N2CC(F)(F)C2)c(OCC2CC2)n1 [Example 266]
Given back: 1.3 µM

###

target: human CB1 receptors (Homo sapiens (Human)); test: cAMP assay, CHO cells expressing human CB1 receptors; assay type: cell-based; conditions: CHO cells expressing human CB1, cAMP; read-out: human CB1 EC50
Listing of recorded EC50 by entry.

Would you please look over these solved cases?
{"columns": ["compound", "system_tested", "metric", "result"],
 "data": [
  ["CNC(=O)[C@@H](NC(=O)c1cccc(-c2cccc(C(F)(F)F)c2)n1)C(C)(C)C [Example 214]", "human CB1 receptors (Homo sapiens (Human))", "EC50", "1.63 µM"],
  ["O=C(N[C@@H](CC1CC1)c1nccs1)c1ccc(C2CC2)c(OCC2CC2)n1 [Example 99]", "human CB1 receptors (Homo sapiens (Human))", "EC50", "> 10 µM"],
  ["Cc1nc([C@H](CC2CC2)NC(=O)c2ccc(C3CC3)c(OCC(F)(F)C(F)(F)F)n2)no1 [Example 300]", "human CB1 receptors (Homo sapiens (Human))", "EC50", "> 10 µM"]
]}

Asked: Name the reported EC50 value associated with the compound Cc1nc(C(NC(=O)c2ccc(C3CC3)c(OCC3CCOCC3)n2)C2CC2)no1 (centres unmarked) [Example 219]
Given back: 2.14 µM

Asked: Name the reported EC50 value associated with the compound CNC(=O)[C@H](CC(C)C)NC(=O)c1ccc(C2CC2)c(OCC2CCCO2)n1 (some centres unmarked) [Example 184]
Given back: > 10 µM

Asked: Name the reported EC50 value associated with the compound O=C(NC(c1ccccn1)C(F)(F)F)c1ccc(C2CC2)c(OCC(F)(F)F)n1 (centres unmarked) [Example 302]
Given back: > 10 µM

Asked: Name the reported EC50 value associated with the compound CC(C)(CCS(C)(=O)=O)NC(=O)c1ccc(C2CC2)c(OCC2CC2)n1 [Example 349]
Given back: > 10 µM

Asked: Name the reported EC50 value associated with the compound COc1ccc(C(=O)NC(C)(C)c2ncco2)nc1-c1cccc(Cl)c1 [Example 90]
Given back: > 10 µM

Asked: Name the reported EC50 value associated with the compound Cc1nc(C(C)(C)NC(=O)c2ccc(N3CCC(=O)C3)c(OCC3CC3)n2)no1 [Example 334]
Given back: > 10 µM

Asked: Name the reported EC50 value associated with the compound COC(=O)[C@@H](NC(=O)c1ccc(C2CC2)c(OCC2CC2)n1)C(C)(C)C [Example 239]
Given back: 0.0919 µM

Asked: Name the reported EC50 value associated with the compound CNC(=O)[C@H](CC(C)(C)C)NC(=O)c1ccc(C(F)(F)F)c(OCC2CC2)n1 [Example 228]
Given back: > 10 µM

Asked: Name the reported EC50 value associated with the compound CC(C)C[C@H](NC(=O)c1ccc(N2CC(F)(F)C2)c(OCC2CC2)n1)C(N)=O [Example 132]
Given back: 1.13 µM
